target: cAMP-dependent protein kinase catalytic subunit alpha (Homo sapiens) (UniProt P17612); experiment: Inhibition of full length human PKAcalpha assessed as remaining activity at 1 uM using LRRASLG as substrate incubated for 40 mins by scintillation counting method relative to control
Quantity: Activity
Mention the unit after the number when you answer.

Tell me measured Activity for O=C(C(CNC1CCCCC1)c1ccc(Cl)cc1)N1CCN(c2ncnc3sc4c(c23)CCC4)CC1 (centres undefined) please.
29%

Tell me measured Activity for O=C(C(CNC1CCCC1)c1ccc(Cl)cc1)N1CCN(c2ncnc3sc4c(c23)CCC4)CC1 (centres undefined) please.
35%

Tell me measured Activity for CC(C)NCC(C(=O)N1CCN(c2ncnc3sc4c(c23)CCN(C(C)C)C4)CC1)c1ccc(Cl)cc1 (centres undefined) please.
84%

Tell me measured Activity for CC(C)NCC(C(=O)N1CCN(c2ncnc3sc4c(c23)CCCC4)CC1)c1ccc(Cl)cc1 (centres undefined) please.
78%

Tell me measured Activity for CC(C)NCC(C(=O)N1CCN(c2ncnc3sc4c(c23)CCN(C2CC2)C4)CC1)c1ccc(Cl)cc1 (centres undefined) please.
92%

Tell me measured Activity for Cc1ccc(C(CNC(C)C)C(=O)N2CCN(c3ncnc4sc5c(c34)CCN(C)C5)CC2)cc1 (centres undefined) please.
90%

Tell me measured Activity for CN1CCc2c(sc3ncnc(N4CCN(C(=O)C(CNC5CCCC5)c5ccc(Cl)cc5)CC4)c23)C1 (centres undefined) please.
82%

Tell me measured Activity for CC(C)NCC(C(=O)N1CCN(c2ncnc3sc4c(c23)CCN(Cc2ccccc2)C4)CC1)c1ccc(Cl)cc1 (centres undefined) please.
80%

Tell me measured Activity for CCNCC(C(=O)N1CCN(c2ncnc3sc4c(c23)CCC4)CC1)c1ccc(Cl)cc1 (centres undefined) please.
31%

* * *

Consider the following compounds; for each one, report its Activity.
tested on: RAC-gamma serine/threonine-protein kinase (Homo sapiens), Q9Y243 [S472D]; test: Inhibition of full length human Akt3 S472D mutant assessed as remaining activity at 1 uM using GRPRTSSFAEGKK as substrate incubated for 40 mins by scintillation counting method relative to control
Sequence (Q9Y243 whole entry S472D): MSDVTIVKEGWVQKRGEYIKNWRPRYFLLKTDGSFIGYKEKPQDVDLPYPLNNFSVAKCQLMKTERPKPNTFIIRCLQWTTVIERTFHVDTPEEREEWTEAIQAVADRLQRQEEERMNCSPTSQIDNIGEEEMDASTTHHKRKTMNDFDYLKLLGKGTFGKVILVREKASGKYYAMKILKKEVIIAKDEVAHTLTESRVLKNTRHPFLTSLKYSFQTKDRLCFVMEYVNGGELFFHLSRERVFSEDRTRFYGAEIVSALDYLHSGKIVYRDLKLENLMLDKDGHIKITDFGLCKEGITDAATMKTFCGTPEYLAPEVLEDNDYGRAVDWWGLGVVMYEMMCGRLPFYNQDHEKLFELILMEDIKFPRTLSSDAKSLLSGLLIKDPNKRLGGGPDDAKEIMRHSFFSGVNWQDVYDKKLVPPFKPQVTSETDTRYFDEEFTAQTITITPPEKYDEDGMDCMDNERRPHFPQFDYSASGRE
Could you give me the number in %? Just the number is fine.

Tell me measured Activity for CC(C)NCC(C(=O)N1CCN(c2ncnc3sc4c(c23)CCN(C(=O)N(C)C)C4)CC1)c1ccc(Cl)cc1 (configuration not stated) please.
87

Tell me measured Activity for O=C(C(CNC1CCCCC1)c1ccc(Cl)cc1)N1CCN(c2ncnc3sc4c(c23)CCC4)CC1 (configuration not stated) please.
11

Tell me measured Activity for CC(C)NCC(C(=O)N1CCN(c2ncnc3sc4c(c23)CCC4)CC1)c1ccc(F)cc1 (configuration not stated) please.
45

Tell me measured Activity for COc1ccc(C(CNC(C)C)C(=O)N2CCN(c3ncnc4sc5c(c34)CCN(C)C5)CC2)cc1 (configuration not stated) please.
76

Tell me measured Activity for CCNCC(C(=O)N1CCN(c2ncnc3sc4c(c23)CCN(C)C4)CC1)c1ccc(Cl)cc1 (configuration not stated) please.
74

Tell me measured Activity for CC(C)NCC(C(=O)N1CCN(c2ncnc3sc4c(c23)CCN(C2CC2)C4)CC1)c1ccc(Cl)cc1 (configuration not stated) please.
70

Tell me measured Activity for CN1CCc2c(sc3ncnc(N4CCN(C(=O)C(CNC5CCCCC5)c5ccc(Cl)cc5)CC4)c23)C1 (configuration not stated) please.
69

Tell me measured Activity for CC(C)NCC(C(=O)N1CCN(c2ncnc3sc4c(c23)CCN(C)C4)CC1)c1ccccc1Cl (configuration not stated) please.
76

Tell me measured Activity for CC(C)NCC(C(=O)N1CCN(c2ncnc3sc4c(c23)CCN(Cc2ccccc2)C4)CC1)c1ccc(Cl)cc1 (configuration not stated) please.
71

Tell me measured Activity for Cc1ccc(C(CNC(C)C)C(=O)N2CCN(c3ncnc4sc5c(c34)CCN(C)C5)CC2)cc1 (configuration not stated) please.
73

Tell me measured Activity for CC(C)NCC(C(=O)N1CCN(c2ncnc3sc4c(c23)CCN(C)C4)CC1)c1ccc(Br)cc1 (configuration not stated) please.
72

Tell me measured Activity for CC(C)NCC(C(=O)N1CCN(c2ncnc3sc4c(c23)CCN(C)C4)CC1)c1ccc(Cl)cc1 (configuration not stated) please.
69

Tell me measured Activity for CC(C)NCC(C(=O)N1CCN(c2ncnc3sc4c(c23)CCCC4)CC1)c1ccc(Cl)cc1 (configuration not stated) please.
63

Tell me measured Activity for CCN1CCc2c(sc3ncnc(N4CCN(C(=O)C(CNC(C)C)c5ccc(Cl)cc5)CC4)c23)C1 (configuration not stated) please.
71

Tell me measured Activity for O=C(C(CNC1CCCC1)c1ccc(Cl)cc1)N1CCN(c2ncnc3sc4c(c23)CCC4)CC1 (configuration not stated) please.
22

Tell me measured Activity for COc1ccc(C(CNC(C)C)C(=O)N2CCN(c3ncnc4sc5c(c34)CCC5)CC2)cc1 (configuration not stated) please.
42

Tell me measured Activity for CCCCNCC(C(=O)N1CCN(c2ncnc3sc4c(c23)CCN(C)C4)CC1)c1ccc(Cl)cc1 (configuration not stated) please.
84

Tell me measured Activity for CN1CCc2c(sc3ncnc(N4CCN(C(=O)C(CNC5CCCC5)c5ccc(Cl)cc5)CC4)c23)C1 (configuration not stated) please.
76

Tell me measured Activity for CC(C)NCC(C(=O)N1CCN(c2ncnc3sc4c(c23)CCOC4)CC1)c1ccc(Cl)cc1 (configuration not stated) please.
77

Tell me measured Activity for CC(C)NCC(C(=O)N1CCN(c2ncnc3sc4c(c23)CCC4)CC1)c1ccc(Cl)cc1 (configuration not stated) please.
19

Tell me measured Activity for CC(C)NCC(C(=O)N1CCN(c2ncnc3sc4c(c23)CCC4)CC1)c1ccc(Br)cc1 (configuration not stated) please.
20

Tell me measured Activity for CC(C)NCC(C(=O)N1CCN(c2ncnc3sc4c(c23)CCC4)CC1)c1ccccc1Cl (configuration not stated) please.
92

Tell me measured Activity for CCCCNCC(C(=O)N1CCN(c2ncnc3sc4c(c23)CCC4)CC1)c1ccc(Cl)cc1 (configuration not stated) please.
15

Tell me measured Activity for CC(C)NCC(C(=O)N1CCN(c2ncnc3sc4c(c23)CCN(C)C4)CC1)c1ccc(F)cc1 (configuration not stated) please.
87

Tell me measured Activity for CC(C)NCC(C(=O)N1CCN(c2ncnc3sc4c(c23)CCN(C(C)C)C4)CC1)c1ccc(Cl)cc1 (configuration not stated) please.
78

Tell me measured Activity for CCCN1CCc2c(sc3ncnc(N4CCN(C(=O)C(CNC(C)C)c5ccc(Cl)cc5)CC4)c23)C1 (configuration not stated) please.
79

Tell me measured Activity for CCNCC(C(=O)N1CCN(c2ncnc3sc4c(c23)CCC4)CC1)c1ccc(Cl)cc1 (configuration not stated) please.
21
